Reported IC50 values follow for various molecules
- Tested on: Ba/F3 parental
- Experiment description: Ba/F3 cell growth inhibition (CellTiter-Glo, 72 hours)
- Type: cell-based
- Recorded conditions: Mus musculus, BaF3, Ba/F3 parental cells, read-out: Ba/F3 GI50s (μM) parental

Some entries whose results are on file:
Molecule	Measured attribute	Value measured
CC(=O)N1CCCn2cc(cn2)Nc2ncc3ccc(n3n2)-c2ccc(cc2)OCC1	IC50	1 to 10 µM
O=C1CCCCCCOc2ccc(cc2)-c2ccc3cnc(nn23)Nc2ccc(cc2)N2CCN(CCCN1)CC2	IC50	≥ 10 µM
O=C1CCCCCCOc2ccc(cc2)-c2ccc3cnc(nn23)Nc2ccc(cc2)OCCCN1	IC50	≥ 10 µM
CS(=O)(=O)Nc1cccc(-c2ccc3cnc(Nc4ccc(N5CCN(CCCOc6cccc7c6C(=O)N(C6CCC(=O)NC6=O)C7=O)CC5)cc4)nn23)c1 (centres unmarked)	IC50	1 to 10 µM
O=C1COCCOc2ccc(cc2)-c2ccc3cnc(nn23)Nc2cnn(c2)CCCN1	IC50	1 to 10 µM

# query: IC50 of entry `O=C1CCCCOc2ccc(cc2)-c2ccc3cnc(nn23)Nc2ccc(cc2)OCCCN1`
≥ 10 µM

Similarly, `COc1cc2ccc1Nc1ncc3ccc(n3n1)-c1ccc(cc1)OCCOCC(=O)NCCCO2` ?
≥ 10 µM

Please give the result for `O=C1COCCOc2ccc(cc2)-c2ccc3cnc(nn23)Nc2ccc(cc2)OCCCN1` too.
< 1 µM

----------
- System: H23
- Experiment description: Cancer cell growth inhibition (CellTiter-Glo, 72 hours)
- Type: cell-based
- Recorded conditions: Homo sapiens, NCI-H23, H23 cells, read-out: GI50s (μM) H23
Measured attribute: IC50

# example entries with known answers
Compound	IC50
O=C1CCCCCCOc2ccc(cc2)-c2ccc3cnc(nn23)Nc2cnn(c2)CCCN1 [Example 37]	1 to 10 µM
COc1cccc(NC(=O)N2CCCn3cc(cn3)Nc3ncc4ccc(n4n3)-c3ccc(cc3)OCC2)c1 [Example 7]	1 to 10 µM
CS(=O)(=O)Nc1cccc(-c2ccc3cnc(Nc4ccc(N5CCN(CCCCCCCCCCCOc6cccc7c6C(=O)N(C6CCC(=O)NC6=O)C7=O)CC5)cc4)nn23)c1 (stereo not shown) [Example 42]	≥ 10 µM

Endpoint output: IC50 of c1cc2ccc1Nc1ncc3ccc(n3n1)-c1ccc(cc1)OCCNCCCO2 [Example 30] . Value?
1 to 10 µM

----------
- Tgt: Ba/F3 FLT3 (ITD/D835YF691L) (Homo sapiens, UniProt P36888, F691L/D835Y, cells depend on it, form not given)
- Experiment description: Ba/F3 cell growth inhibition (CellTiter-Glo, 72 hours)
- Type: cell-based
- Recorded conditions: read-out: Ba/F3 GI50s (μM) FLT3 (ITD/D835YF691L)
- Protocol: Seeding 3000 cells per well in a 96-well plate. After cell stabilization, treat the cells with compounds diluted in […] at a ⅓ serial dilution and culture for 72 hours. Following treatment with CellTiter-Glo, luminescence is produced only in the presence of ATP, as luciferase degrades luciferin. Luminescence values were measured using Envision (PerkinElmer). Based on the measured luminescence values, the concentration of compounds causing cell death was calculated to determine the GI50 value. […]
Measured attribute: GI50

Guide cases for GI50, answers given:
Compound	GI50
Cc1ncsc1-c1ccc(CNC(=O)[C@@H]2C[C@@H](O)CN2C(=O)[C@@H](NC(=O)CCOCCOCCN2CCN(c3ccc(Nc4ncc5ccc(-c6cccc(NS(C)(=O)=O)c6)n5n4)cc3)CC2)C(C)(C)C)cc1	≥ 10 µM
O=C1CCCCCCOc2ccc(cc2)-c2ccc3cnc(nn23)Nc2cnn(c2)CCCN1	1 to 10 µM

Data request, read-out GI50, for `O=C1CCCCOc2ccc(cc2)-c2ccc3cnc(nn23)Nc2ccc(cc2)OCCCN1`
1 to 10 µM

Param item: CS(=O)(=O)Nc1cccc(-c2ccc3cnc(Nc4ccc(N5CCN(CCCOc6cccc7c6C(=O)N(C6CCC(=O)NC6=O)C7=O)CC5)cc4)nn23)c1 (centres unmarked)
< 1 µM

Do the same for `O=C1CCCCCCOc2ccc(cc2)-c2ccc3cnc(nn23)Nc2ccc(cc2)OCCCN1` please
1 to 10 µM
